Assay: NCI Yeast Anticancer Drug Screen. Data for the rad14 strain (AID 159);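 also: 0% = growth of vehicle-treated control cultures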
Assay Conditions: S. cerevisiae rad14 strain growth inhibition; at 33.0 µM; stronger effect = higher value
Method: Growth inhibition of yeast strains with defined genetic alterations is measured as a screen for potential anti-cancer activity. Selected strains with alterations in DNA damage repair or cell cycle control were exposed to compounds and growth inhibition was measured relative to vehicle treated controls. The strain used in this assay is rad14
Compounds without any hit were thinned out: in the full panel of roughly 79,000, 15% have a hit.
Reported Property: growth inhibition (%)
Answers are plain numbers, in %.

Need growth inhibition for each of these compounds.
1. CC1(C)C(C=O)=CCC1CC(N)=O (stereo unspecified)
2. NNC(=S)Nc1cccc(Cl)c1
3. Clc1nc(C(Cl)Cl)nc2sc3c(c12)CCCC3
4. CC(C)c1[nH]nc(C(N)=O)c1N=NN(C)C
5. Nc1nc(N)c2cc(Sc3ccc4ccccc4c3)ccc2n1
6. Cc1ccccc1NC(=O)Cc1csc(N/N=C2\NC(=O)/C(=C/c3cccc([N+](=O)[O-])c3)S2)n1

[6, 26, 33, 12, 96, 16]

* * *

Assay: NCI Yeast Anticancer Drug Screen. Data for the bub3 strain (AID 167)
Assay Conditions: S. cerevisiae bub3 mutant strain, at 3.7 µM, stronger effect = higher value
This is part of a sample that, as a whole, favours compounds with a hit. Of some 79,000 tested, about 15% had one in any assay. Calls of active or inactive are those of the source. Rule as the data show it: active = growth inhibition above about 70%; inactive = the rest.
Reported Property: growth inhibition

Need growth inhibition for each of these compounds.
1. CC(C)(C)c1ccc(O)c(C(c2ccc([N+](=O)[O-])cc2)c2cc(C(C)(C)C)ccc2O)c1
2. O=c1[nH]cc(/C=N\Nc2ccccc2)c(=O)[nH]1
3. COC(=O)c1n[nH]c(C)c1N=NN(C)CCC#N
4. O/N=C/C1c2ccccc2-c2ccccc21
5. CCOC(=O)C(NC(=O)CC)(N1CCN(c2cc3c(cc2F)c(=O)c(C(=O)O)cn3C2CC2)CC1)C(F)(F)F (stereo not given)

16% (inactive)
1% (inactive)
-16% (inactive)
-2% (inactive)
0% (inactive)

* * *

Assay: NCI Yeast Anticancer Drug Screen. Data for the rad52 strain (AID 147);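 also: 0% = growth of vehicle-treated control cultures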
Assay Conditions: S. cerevisiae rad52 mutant growth inhibition; at 100.0 µM
Compounds without any hit were thinned out: in the full panel of roughly 79,000, 15% have a hit. Calls of active or inactive are those of the source. No stated cut-off is given here; in the data, active means growth inhibition above about 70%; inactive means the rest.
Form entry, call: pick from 1 = active, 0 = inactive

[
  {
    "Molecule": "COc1cc2c(cc1C[N+](C)(C)CSc1ccccc1)-c1ccccc1CC2",
    "Class Label": 1
  }
]

Answer briefly: the call reported for "CCCCC(=O)c1c(O)nc2sccn2c1=O" in this assay. 1

What do we get for "CC(C)c1cccc(O)c(=O)c1" ? 1

What do we get for "CCOC(=O)Nc1ccc2c(c1)Cc1ccccc1-2" ? 0

What do we get for "C=C(C)[C@@H]1CCc2c(O)c(O)c(=O)cc(C)c2C1" ? 1

What do we get for "O=C1CSC(=S)N1Cc1ccc(Cl)cc1Cl" ? 1

What do we get for CC(=O)C1=C(O)C2(C)c3c(O)c(C)c(O)c(C(C)=O)c3OC2(Sc2ccccc2)CC1=O (stereo not drawn) ? 1

* * *

Could you please report measured growth inhibition for the items listed next?
Assay: NCI Yeast Anticancer Drug Screen. Data for the mec2-1 strain (AID 157)
Assay Conditions: S. cerevisiae mec2-1 strain, at 3.7 µM, stronger effect = higher value
The panel holds about 79,000 compounds, 15% with a hit somewhere; the sample as a whole holds those more often.
Give bare numbers, in %.

Reference set (4 entries):
[
  {
    "Molecule": "CC1OC(OC2CCCc3c(O)c4c(c(O)c32)C(=O)c2ccccc2C4=O)CC(N)C1O (configuration not stated)",
    "Reported Property": "growth inhibition",
    "Value": -2
  },
  {
    "Molecule": "Cc1ccc(Nc2n[nH]c(=S)s2)cc1",
    "Reported Property": "growth inhibition",
    "Value": -29
  },
  {
    "Molecule": "O=[N+]([O-])/C(C(Cl)=C(Cl)Cl)=C1/OCCS1",
    "Reported Property": "growth inhibition",
    "Value": 55
  },
  {
    "Molecule": "CCC(=O)N(c1ccccc1)C(C)CN1CCC(O)(c2cccc(C(F)(F)F)c2)CC1 (configuration not stated)",
    "Reported Property": "growth inhibition",
    "Value": 7
  }
]

Need growth inhibition for each of these molecules.
1. Nc1cc(F)cc2c1-c1ccc(F)cc1C2
2. COc1cc([C@@H]2c3cc4c(cc3[C@@H](OC3OC5COC(C)OC5C(O)C3O)[C@H]3COC(=O)[C@H]23)OCO4)cc(OC)c1O (some centres not stated)

1: 1; 2: 0

Need growth inhibition for each of these molecules.
1. CN[C@@H]1C[C@H]2O[C@@](C)([C@@H]1OC)n1c3ccccc3c3c4c(c5c6ccccc6n2c5c31)C(=O)N[C@@H]4O
2. CCCCCC#CCOC(=O)C(=[N+]=[N-])P(=O)(c1ccccc1)c1ccccc1

1: -44; 2: 7

* * *

Assay: NCI Yeast Anticancer Drug Screen. Data for the wt2 strain (AID 169);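 also: 0% = growth of vehicle-treated yeast cultures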
Assay Conditions: S. cerevisiae wt2 strain growth inhibition; at 3.7 µM
The panel holds about 79,000 compounds, 15% with a hit somewhere; the sample as a whole holds those more often. The source made the active and inactive calls. No stated cut-off is given here; in the data, active means growth inhibition above about 70%; inactive means the rest.
Form entry, call: pick from True (active), False (inactive)

// below: answered molecules
[
  {
    "Molecule": "OCCN(CCO)c1ccc2c(c1)Cc1ccccc1-2",
    "Class Label": "False"
  },
  {
    "Molecule": "C=Cc1cnc([N+](=O)[O-])n1C",
    "Class Label": "False"
  },
  {
    "Molecule": "CCOC(=O)C1=C(C)NC(C)=C(C(=O)OCC)C1c1ccccc1Cl",
    "Class Label": "False"
  },
  {
    "Molecule": "COc1cc(CNc2ccc(C(C)C)cc2)cc(OC)c1OC",
    "Class Label": "False"
  },
  {
    "Molecule": "CCN(CC)CC(O)C1CCC(c2ccccc2)CC1 (stereo not drawn)",
    "Class Label": "False"
  },
  {
    "Molecule": "CCNc1ccc2c(c1)C(=O)N(OS(C)(=O)=O)C2=O",
    "Class Label": "False"
  }
]

Answer briefly: the call reported for "CCCCCC(=O)c1ccc(O)cc1O" in this assay. False

What do we get for "Clc1cc(-c2ccccc2)nc2ccccc12" ? False

What do we get for "Cc1cc(OCc2ccccc2)ccc1[N+](=O)[O-]" ? False

What do we get for "COC(=O)c1n[nH]c(C)c1N=NN(C)CCC#N" ? False

What do we get for "O=C(O)c1ccccc1.[Ag]" ? True

What do we get for "Cc1ccc(Nc2c3c(c(C#N)c4nc5ccccc5n24)CCCC3)cc1" ? False

What do we get for "CSc1s[s+]c(SC)c1-c1ccccc1" ? False

* * *

Assay: NCI Yeast Anticancer Drug Screen. Data for the wt1 strain (AID 149);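 also: 0% = growth of vehicle-treated wt1 cultures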
Assay Conditions: S. cerevisiae wt1 strain (SPY 50644) growth inhibition; at 100.0 µM; stronger effect = higher value
This is part of a sample that, as a whole, favours compounds with a hit. Of some 79,000 tested, about 15% had one in any assay.
Given measured growth inhibition, output Condition met if it is greater than or equal to 50% and Condition not met if not.

// below: answered compounds
[
  {
    "Compound": "CCCCCCCCCCCc1nc(N)n[nH]1",
    "Class Label": "Condition met"
  },
  {
    "Compound": "O=C1C=CC(=O)N1c1ccc(N2C(=O)C=CC2=O)cc1",
    "Class Label": "Condition met"
  },
  {
    "Compound": "CCOC(=O)C(NC(=O)CC)(N1CCN(c2cc3c(cc2F)c(=O)c(C(=O)O)cn3C2CC2)CC1)C(F)(F)F (centres undefined)",
    "Class Label": "Condition met"
  },
  {
    "Compound": "N#C/C(=C\\c1ccccc1)c1ccccc1F",
    "Class Label": "Condition not met"
  },
  {
    "Compound": "Cc1ccc2occ/c(=N\\Nc3ccccc3)c2c1",
    "Class Label": "Condition not met"
  }
]

Has "O=c1[nH]c2ccccc2c2nc3ccccc3n12" a recorded growth inhibition greater than or equal to 50%? Condition not met

What do we get for "O=C(CNS(=O)(=O)Cc1ccccc1)NNc1ccccc1" ? Condition not met

What do we get for OC(CN1CCCCC1)c1cc(Cl)c(Cl)c(Cl)c1 (centres undefined) ? Condition not met

What do we get for "NC(=O)N1c2ccccc2C=Cc2ccccc21" ? Condition not met

What do we get for "O=C1c2cccc3cc([N+](=O)[O-])cc(c23)C(=O)N1CCN1CCCC1" ? Condition not met

What do we get for "Cc1ccc(Nc2c3c(c(C#N)c4nc5ccccc5n24)CCCC3)cc1" ? Condition met

What do we get for "C(=N/NC1=NCCN1)/c1c2ccccc2c(/C=N\NC2=NCCN2)c2ccccc12" ? Condition met

What do we get for Cc1ccc(S(=O)(=O)Nc2ccc3c(c2)C(O)c2ccccc2-3)cc1 (centres undefined) ? Condition not met

What do we get for CCCCCCCCCCCCCC(=O)OC(C)CCC1CCCO1 (centres undefined) ? Condition not met

What do we get for Clc1c(Cl)c(Cl)c2c(nnn2C2CCCO2)c1Cl (centres undefined) ? Condition not met

What do we get for "Cc1cccc(/C=N/NC(=S)N(C)CCc2ccccn2)n1" ? Condition met

What do we get for "O=[N+]([O-])c1cccc2nc3ccccc3c(NCCc3cccc[n+]3[O-])c12" ? Condition met

What do we get for "Clc1cc(-c2ccccc2)nc2ccccc12" ? Condition met

What do we get for "Clc1c(Cl)c(Cl)c2n[nH]nc2c1Cl" ? Condition met

What do we get for CC1CCC2(C(=O)O)CCC3(C)C(=CCC4C5(C)CC(O)C(O)C(C)(CO)C5C(O)CC43C)C2C1C (centres undefined) ? Condition met

What do we get for "COc1ccc2oc(-c3ccc(Cl)cc3)c(N3CCN(C)CC3)c2c1" ? Condition met

What do we get for "CCCCCCSc1nc(COC(=O)NC)c(COC(=O)NC)n1C" ? Condition met

What do we get for "COc1ccc(N)c2c1C(=O)c1ccccc1C2=O" ? Condition met
